Hello, the source for this data is PubChem BioAssay AID686996, in case you need it.

# ASSAYED TARGET: Caspase-6 (Homo sapiens) (UniProt P55212)
# Sequence (P55212 24-179 limits assumed): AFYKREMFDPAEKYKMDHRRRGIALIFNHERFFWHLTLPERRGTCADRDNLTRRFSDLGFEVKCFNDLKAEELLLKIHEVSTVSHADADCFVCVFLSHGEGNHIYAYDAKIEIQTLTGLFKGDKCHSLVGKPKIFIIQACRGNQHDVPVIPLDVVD
# Sequence (P55212 194-293 limits assumed): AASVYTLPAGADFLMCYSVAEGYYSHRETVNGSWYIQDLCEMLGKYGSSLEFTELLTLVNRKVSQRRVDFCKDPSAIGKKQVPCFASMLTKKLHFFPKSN
# TEST SUMMARY: human caspase-6 inhibitors, primary screen, biochemical, VEID-R110 fluorescence, single point, set 2 (AID 686996);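 further: 0% = median of neutral control wells and 100% = no fluorescence left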
# TEST PARAMETERS: purified caspase-6, Z-VEID-R110 cleavage fluorescence; at 12.5 µM; hits give high values
The whole screen tested about 350,000 compounds, of which about 1,900 (0.54%) were called active. For the sample, actives were picked, then their nearest neighbours and some compounds at random.
VALUE KIND: inhibition (%)
Express the result in % but write the number alone.

CN(C)C(=O)c1ccc(-c2ccccc2[C@H]2[C@@H](CO)N(C(=O)C3CCCCC3)[C@H]2C#N)cc1
-0.604
CCN1[C@@H]2Cn3c(ccc(C4=CCCCC4)c3=O)[C@H]1[C@@H](C(=O)N1CCCCC1)[C@@H]2CO
1.04
O=C(C1CCCCC1)N1CC(=O)N2[C@H](CO)[C@@H](c3ccc(C#Cc4cccc(F)c4)cc3)[C@@H]2C1
-1.89
Cc1noc(C)c1NC(=O)N(C)C[C@@H]1Oc2ccc(NS(C)(=O)=O)cc2C(=O)N([C@@H](C)CO)C[C@@H]1C
3.77
CO[C@H]1CN(C)C(=O)c2ccc(NS(=O)(=O)c3ccccc3)cc2OC[C@H](C)N(Cc2nccs2)C[C@@H]1C
0.023

I have this compound here, `C[C@@H](O)C#Cc1ccc([C@H]2[C@@H](CO)N3CCCCN(S(=O)(=O)c4ccccc4)C[C@@H]23)cc1` , and I need its recorded inhibition.
-3.52

Now consider `C[C@@H](NC(=O)C[C@H]1CC[C@@H](NC(=O)Cc2ccccn2)[C@@H](CO)O1)c1ccccc1` .
-7.46

Try this compound next: `CO[C@H]1CN(C)C(=O)c2cc(NC(=O)Nc3c(C)noc3C)ccc2OC[C@@H](C)N(CCC(F)(F)F)C[C@H]1C`
-1.87

Next record, please: `C[C@H](CO)N1C[C@H](C)[C@H](CN(C)Cc2ccc(C(=O)O)cc2)Oc2ncc(-c3ccccc3)cc2C1=O`
-1.47

----------
Reported inhibition values for the following molecules.
# ASSAYED TARGET: Caspase-6 (Homo sapiens)
# TEST SUMMARY: human caspase-6 inhibitors, primary screen, biochemical, VEID-R110 fluorescence, single point, set 2 (AID 686996);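 further: 0% = median of neutral control wells and 100% = no fluorescence left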
# TEST PARAMETERS: purified caspase-6, Z-VEID-R110 cleavage fluorescence; at 12.5 µM; hits give high values
Among all 350,000 compounds or so, about 1,900 (0.54%) were called active. The entries come from a sample that favours actives as a whole.
Answer with a number only, understood to be in %.

I would be grateful if you could share the reported inhibition for `COc1ccc(NS(=O)(=O)c2ccc(Oc3c(C#N)cccc3C#N)cc2)cc1` .
-1.42

# repeat for `C[C@H](CO)N1C[C@H](C)[C@H](CN(C)Cc2cncnc2)Oc2cc(-c3ccccc3F)ccc2S1(=O)=O`
-1.88

----------
# ASSAYED TARGET: Caspase-6 (Homo sapiens)
# TEST SUMMARY: human caspase-6 inhibitors, primary screen, biochemical, VEID-R110 fluorescence, single point, set 2 (AID 686996);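 further: 0% = median of neutral control wells and 100% = no fluorescence left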
# TEST PARAMETERS: purified caspase-6, Z-VEID-R110 cleavage fluorescence; at 12.5 µM
The campaign covered roughly 350,000 compounds. About 1,900 (0.54%) were called active.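 Rule for the calls: active = mean inhibition across replicates at least about 35%, with every replicate also reaching that limit (limit read from the data); inconclusive = only one of the two criteria met; inactive = neither criterion met.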 The sample as a whole holds a higher share of actives than the screen did.
// classify into true for active, false for inactive

Observe how each entry below is paired with its result.
O=C(NCC[C@H]1CC[C@H](NS(=O)(=O)c2cccc(F)c2)[C@H](CO)O1)C1CCCCC1
false
CCC(=O)N1CCCCN2[C@H](C1)[C@@H](c1ccc(C#CCOC)cc1)[C@@H]2CO
false
C[C@H](NC(=O)C[C@@H]1C[C@@H]2c3cc(NC(=O)Nc4ccc(C(F)(F)F)cc4)ccc3O[C@@H]2[C@H](CO)O1)c1ccccc1
false
NC1=CC(=O)C(=O)c2cccnc21
true

Could you kindly confirm the outcome this assay logged for `C[C@H](CO)N1C[C@H](C)[C@H](CN(C)C(=O)C2CCC2)Oc2ncc(C#CCc3ccccc3)cc2C1=O` ?
false

Likewise for `C[C@H](CO)N1C[C@H](C)[C@H](CN(C)Cc2ccncc2)Oc2ccc(N(C)C)cc2C1=O` ?
false

Follow-up entry: `C[C@H](O)C#Cc1ccc2c(c1)O[C@@H](CN(C)Cc1cncnc1)[C@H](C)CN([C@H](C)CO)S2(=O)=O`
false

Now this one: `CO[C@H]1CN(C)C(=O)c2ccc(NC(=O)C3CC3)cc2OC[C@@H](C)N(Cc2ccc(F)cc2)C[C@@H]1C`
false

Quick one: `C/C=C/c1ccccc1[C@@H]1[C@@H](CO)N(C(=O)CN2CCOCC2)[C@H]1C#N`
false
